Source: ChEMBL document CHEMBL1142344

test: Half life in dog at 0.25 mg/kg, iv; assay type: ADME, organism-based, Canis lupus familiaris; set-up: dose 0.25 mg/kg, route intravenous; settings: in vivo
Observable: half-life (h)
Give the quantity in h, number only.

Ask: For `Nc1ncnc2nc(-c3ccc(CN4CCC(c5nc6ccc(F)cc6[nH]5)CC4)cc3)c(-c3ccccc3)cc12` , write its half-life.
Reply: 2.8

====

target: RAC-alpha serine/threonine-protein kinase (Homo sapiens, UniProt P31749); assay: Inhibition of human recombinant Akt1
Sequence (P31749 whole entry): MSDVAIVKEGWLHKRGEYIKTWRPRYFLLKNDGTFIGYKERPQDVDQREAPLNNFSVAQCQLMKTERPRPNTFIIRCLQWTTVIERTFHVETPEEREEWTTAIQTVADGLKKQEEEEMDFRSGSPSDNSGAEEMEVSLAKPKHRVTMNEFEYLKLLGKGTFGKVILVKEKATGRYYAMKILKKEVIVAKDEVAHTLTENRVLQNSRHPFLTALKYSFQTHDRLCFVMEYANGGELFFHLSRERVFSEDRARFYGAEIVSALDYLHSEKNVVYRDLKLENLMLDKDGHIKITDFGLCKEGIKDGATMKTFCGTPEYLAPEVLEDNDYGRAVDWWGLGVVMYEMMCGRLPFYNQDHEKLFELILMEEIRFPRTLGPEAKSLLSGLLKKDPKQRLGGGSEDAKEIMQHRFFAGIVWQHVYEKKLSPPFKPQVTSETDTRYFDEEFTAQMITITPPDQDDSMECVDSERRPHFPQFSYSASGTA
Observable: IC50 (nM)
Give the quantity in nM, number only.

Answered examples (6):
Smiles data	Observable	Number
Nc1nn(CCO)c2nc(-c3ccc(CN4CCC(n5c(=O)[nH]c6ccccc65)CC4)cc3)c(-c3ccccc3)cc12	IC50	131
Nc1n[nH]c2nc(-c3ccc(CN4CCC(n5c(=O)[nH]c6ccccc65)CC4)cc3)c(-c3ccccc3)cc12	IC50	86
Cn1nc(N)c2cc(-c3ccccc3)c(-c3ccc(CN4CCC(n5c(=O)[nH]c6ccccc65)CC4)cc3)nc21	IC50	121
CN(C)c1nc(-c2ccc(CN3CCC(n4c(=O)[nH]c5ccccc54)CC3)cc2)c(-c2ccccc2)cc1C#N	IC50	8460
Nc1ncnc2nc(-c3ccc(CN4CCC(c5cc(-c6ccncc6)[nH]n5)CC4)cc3)c(-c3ccccc3)cc12	IC50	21
COc1nc(-c2ccc(CN3CCC(n4c(=O)[nH]c5ccccc54)CC3)cc2)c(-c2ccccc2)cc1C#N	IC50	5550

In the following, a different compound is considered.
Ask: For `Nc1ncnc2nc(-c3ccc(CN4CCC(n5cnc6c(N)ncnc65)CC4)cc3)c(-c3ccccc3)cc12` , write its IC50.
Reply: 129

====

Catalogue of log10(IC50) values
biological target: RAC-beta serine/threonine-protein kinase (Homo sapiens); assay: Inhibition of human recombinant Akt2
Lab note - IC50 converted to log10 from values in µM.

Ask: Provide the reported log10(IC50) (system: RAC-beta serine/threonine-protein kinase (Homo sapiens)) for `Nc1n[nH]c2nc(-c3ccc(CN4CCC(n5c(=O)[nH]c6ccccc65)CC4)cc3)c(-c3ccccc3)cc12`
Reply: 0.87

Ask: Provide the reported log10(IC50) (system: RAC-beta serine/threonine-protein kinase (Homo sapiens)) for `Nc1ncnc2nc(-c3ccc(CN4CCC(n5c(=O)[nH]c6ccccc65)CC4)cc3)c(-c3ccccc3)cc12`
Reply: -0.59

Ask: Provide the reported log10(IC50) (system: RAC-beta serine/threonine-protein kinase (Homo sapiens)) for `N#Cc1cc(-c2ccccc2)c(-c2ccc(CN3CCC(n4c(=O)[nH]c5ccccc54)CC3)cc2)nc1N`
Reply: 0.31

Ask: Provide the reported log10(IC50) (system: RAC-beta serine/threonine-protein kinase (Homo sapiens)) for `Nc1nn(CCc2c[nH]cn2)c2nc(-c3ccc(CN4CCC(n5c(=O)[nH]c6ccccc65)CC4)cc3)c(-c3ccccc3)cc12`
Reply: -0.08

Ask: Provide the reported log10(IC50) (system: RAC-beta serine/threonine-protein kinase (Homo sapiens)) for `Cn1nc(N)c2cc(-c3ccccc3)c(-c3ccc(CN4CCC(n5c(=O)[nH]c6ccccc65)CC4)cc3)nc21`
Reply: -0.25

====

target: RAC-alpha serine/threonine-protein kinase (Homo sapiens); assay: Inhibition of human recombinant Akt1
Entries whose IC50 is below 0.3 µM take 1.0; entries at or above 0.3 µM take 0.0.

Smiles data	Label
Nc1nn(CCc2c[nH]cn2)c2nc(-c3ccc(CN4CCC(n5c(=O)[nH]c6ccccc65)CC4)cc3)c(-c3ccccc3)cc12	1.0

Ask: Determine whether this compound shows IC50 lower than 0.3 µM (ties excluded): `N#Cc1cc(-c2ccccc2)c(-c2ccc(CN3CCC(n4c(=O)[nH]c5ccccc54)CC3)cc2)nc1N`
Reply: 0.0

Ask: Determine whether this compound shows IC50 lower than 0.3 µM (ties excluded): `Nc1ncnc2nc(-c3ccc(CN4CCC(n5c(=O)[nH]c6ccccc65)CC4)cc3)c(-c3ccccc3)cc12`
Reply: 1.0

Ask: Determine whether this compound shows IC50 lower than 0.3 µM (ties excluded): `Nc1nc(O)nc2nc(-c3ccc(CN4CCC(n5c(=O)[nH]c6ccccc65)CC4)cc3)c(-c3ccccc3)cc12`
Reply: 1.0

Ask: Determine whether this compound shows IC50 lower than 0.3 µM (ties excluded): `Nc1nc(N)c2cc(-c3ccccc3)c(-c3ccc(CN4CCC(n5c(=O)[nH]c6ccccc65)CC4)cc3)nc2n1`
Reply: 1.0

Ask: Determine whether this compound shows IC50 lower than 0.3 µM (ties excluded): `CNc1nc(-c2ccc(CN3CCC(n4c(=O)[nH]c5ccccc54)CC3)cc2)c(-c2ccccc2)cc1C#N`
Reply: 0.0

Ask: Determine whether this compound shows IC50 lower than 0.3 µM (ties excluded): `N#Cc1cc(-c2ccccc2)c(-c2ccc(CN3CCC(n4c(=O)[nH]c5ccccc54)CC3)cc2)nc1Cl`
Reply: 1.0

Ask: Determine whether this compound shows IC50 lower than 0.3 µM (ties excluded): `Cc1nc2ccccc2n1C1CCN(Cc2ccc(-c3nc4ncnc(N)c4cc3-c3ccccc3)cc2)CC1`
Reply: 1.0

====

target: RAC-beta serine/threonine-protein kinase (Homo sapiens); assay: Inhibition of human recombinant Akt2
Observable: pIC50
Convention used: pIC50 is expressed as -log10 of the molar concentration.

Answered examples (6):
Smiles data	pIC50
Nc1ncnc2nc(-c3ccc(CN4CCC(n5cnc6c(N)ncnc65)CC4)cc3)c(-c3ccccc3)cc12	6.16
COc1nc(-c2ccc(CN3CCC(n4c(=O)[nH]c5ccccc54)CC3)cc2)c(-c2ccccc2)cc1C#N	4.42
Nc1nc(N)c2cc(-c3ccccc3)c(-c3ccc(CN4CCC(n5c(=O)[nH]c6ccccc65)CC4)cc3)nc2n1	6.56
Nc1nn(CCO)c2nc(-c3ccc(CN4CCC(n5c(=O)[nH]c6ccccc65)CC4)cc3)c(-c3ccccc3)cc12	5.91
Nc1ncnc2nc(-c3ccc(CN4CCC(c5cc(-c6ccncc6)[nH]n5)CC4)cc3)c(-c3ccccc3)cc12	7.07
CNc1nc(-c2ccc(CN3CCC(n4c(=O)[nH]c5ccccc54)CC3)cc2)c(-c2ccccc2)cc1C#N	5.09

In the following, a different compound is considered.
Ask: For `Nc1nc(O)nc2nc(-c3ccc(CN4CCC(n5c(=O)[nH]c6ccccc65)CC4)cc3)c(-c3ccccc3)cc12` , write its pIC50.
Reply: 6.24

====

biological target: RAC-beta serine/threonine-protein kinase (Homo sapiens, UniProt P31751); assay: Inhibition of human recombinant Akt2
Sequence (P31751 whole entry): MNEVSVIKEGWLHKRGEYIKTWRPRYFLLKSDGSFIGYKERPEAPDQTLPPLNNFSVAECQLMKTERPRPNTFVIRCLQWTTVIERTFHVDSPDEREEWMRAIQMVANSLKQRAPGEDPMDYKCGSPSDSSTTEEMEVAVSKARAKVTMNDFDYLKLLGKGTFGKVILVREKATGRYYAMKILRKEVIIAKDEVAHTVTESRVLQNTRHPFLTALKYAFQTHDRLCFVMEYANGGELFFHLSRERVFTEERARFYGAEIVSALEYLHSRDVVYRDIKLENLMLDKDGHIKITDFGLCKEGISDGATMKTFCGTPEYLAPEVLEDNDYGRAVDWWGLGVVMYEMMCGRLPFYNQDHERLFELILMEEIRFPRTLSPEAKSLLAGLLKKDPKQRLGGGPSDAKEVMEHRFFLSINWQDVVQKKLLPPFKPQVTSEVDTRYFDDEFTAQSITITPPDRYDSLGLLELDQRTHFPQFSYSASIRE
Observable: IC50 (µM)
Give the quantity in µM, number only.

Answered examples (2):
Smiles data	Observable	Readout unit	Number
N#Cc1cc(-c2ccccc2)c(-c2ccc(CN3CCC(n4c(=O)[nH]c5ccccc54)CC3)cc2)nc1Cl	IC50	µM	7.36
CN(C)c1nc(-c2ccc(CN3CCC(n4c(=O)[nH]c5ccccc54)CC3)cc2)c(-c2ccccc2)cc1C#N	IC50	µM	15.4

In the following, a different compound is considered.
Ask: For `Cc1nc2ccccc2n1C1CCN(Cc2ccc(-c3nc4ncnc(N)c4cc3-c3ccccc3)cc2)CC1` , write its IC50.
Reply: 0.281
